- measurement-target: Human ALDH3A1 (Homo sapiens, UniProt P30838)
- assay: ALDH3A1 biochemical assay (benzaldehyde/NADP+, diaphorase-resazurin readout, 1,536-well)
assay-readout: AC50
// return the numeric value with its unit appended

CC1(C)Oc2ccc(CNC(=O)c3csc(N4CCN(c5cccc(C(F)(F)F)c5)CC4)n3)cc2O1 = 0.0251 µM

Any idea what AC50 was measured for COc1ccc(N2CCN(c3nc(C(=O)NCc4ccc(C)cc4)cs3)CC2)cc1 ?
3.98 µM

Also CNC(=O)c1cccc(-c2cnc3[nH]cc(CC(=O)NCC(C)C)c3c2)c1 , if possible.
12.6 µM

* * *

- measurement-target: Human ALDH3A1 (Homo sapiens)
- assay: ALDH3A1 biochemical assay (benzaldehyde/NADP+, diaphorase-resazurin readout, 1,536-well)
- reported-conditions: Table S1, primary screen
This listing pairs compounds with measured Efficacy.
Lab note: record the figure alone, no unit after it.

Use these answered entries as a reference point.
CCn1nc(C)c(CNC(=O)c2cc(COc3ccc4ncccc4c3)on2)c1C [NCGC00426725-01] = -57.51
COc1ccc(CCN2Cc3cc(NC(=O)Cc4cccs4)ccc3OCC2=O)cc1 [NCGC00475032-01] = -43.09
COc1cccc(CN2CC(Oc3ccccc3C(=O)NC3CC3)C2)c1 [NCGC00458073-01] = -51.44
C[S+](=O)([O-])c1ccc(CN2C[C@H](O)C[C@H]2c2nc(C3CC3)no2)cc1 [NCGC00396353-01] = -44.61
COc1ccc(CNc2cc3c(cn2)CN(Cc2ccccc2)CCN3)cc1OC [NCGC00411020-01] = -49.01

Any idea what Efficacy was measured for COc1ccc(OCc2cc(C(=O)NC(CO)C(C)C)no2)c2ccccc12 (centres unmarked) [NCGC00427669-01] ?
-69.95

Also CC(=O)Nc1ccc(CN2CC(Oc3ccc4c(c3)OCO4)C2)cc1 [NCGC00373680-01] , if possible.
-29.03

Also NC(=O)[C@H](Cc1ccc(O)cc1)NC(=O)[C@@]1(O)C[C@@H](O)[C@H](O)[C@@H](NC(=O)c2ccc(F)c(Cl)c2)C1 [NCGC00398197-01] , if possible.
-17.95

* * *

- measurement-target: OE19 (3A1) (Homo sapiens, UniProt P30838)
- Sequence (P30838 1-453): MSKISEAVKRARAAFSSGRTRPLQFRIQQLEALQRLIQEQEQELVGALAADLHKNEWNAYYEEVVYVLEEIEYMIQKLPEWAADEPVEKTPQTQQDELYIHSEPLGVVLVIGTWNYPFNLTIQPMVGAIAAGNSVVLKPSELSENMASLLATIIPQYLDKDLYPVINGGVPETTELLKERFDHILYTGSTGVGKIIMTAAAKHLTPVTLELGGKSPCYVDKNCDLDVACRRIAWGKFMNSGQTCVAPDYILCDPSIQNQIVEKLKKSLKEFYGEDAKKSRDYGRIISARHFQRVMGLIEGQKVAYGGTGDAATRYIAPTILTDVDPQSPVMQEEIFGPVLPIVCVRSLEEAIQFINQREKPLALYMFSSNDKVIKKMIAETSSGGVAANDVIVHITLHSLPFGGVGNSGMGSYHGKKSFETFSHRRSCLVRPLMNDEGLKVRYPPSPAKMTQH
- assay: Cellular ALDEFLUOR assay in OE19 cells (preferential ALDH3A1 expression)
- reported-conditions: Table S5, OE19 cells
Label Not met if Cell_Efficacy falls below -80; label Met in every other case.

Previously resolved entries follow.
O=C(NC1CC1)c1ccc(CNC(=O)c2csc(N3CCN(c4cccc(C(F)(F)F)c4)CC3)n2)cc1 = Met
Cc1ccccc1-c1cccc(CNC(=O)c2csc(N3CCN(c4cccc(C(F)(F)F)c4)CC3)n2)c1 = Not met
O=C(COc1cccc(CNC(=O)c2csc(N3CCN(c4cccc(C(F)(F)F)c4)CC3)n2)c1)NC1CC1 = Not met
O=C(NCc1cccc([S+](=O)([O-])C(F)(F)F)c1)c1csc(N2CCN(c3cccc(C(F)(F)F)c3)CC2)n1 = Met
O=C(Nc1ccncc1)c1ccc(CNC(=O)c2csc(N3CCN(c4cccc(C(F)(F)F)c4)CC3)n2)cc1 = Not met

Now look at this entry.
Assess whether reported Cell_Efficacy for O=C(NCc1ccc(F)c(F)c1)c1csc(N2CCN(c3cccc(C(F)(F)F)c3)CC2)n1 sits at -80 or higher.
Not met

* * *

- measurement-target: OE19 (3A1) (Homo sapiens, UniProt P30838)
- assay: Cellular ALDEFLUOR assay in OE19 cells (preferential ALDH3A1 expression)
- reported-conditions: Table S5, cellular curve class
This listing pairs compounds with measured Cell_CC-v2.
Lab note: record the figure alone, no unit after it.

Use these answered entries as a reference point.
C[S+](=O)([O-])c1ccc(CNC(=O)c2csc(N3CCN(c4cccc(C(F)(F)F)c4)CC3)n2)cc1 [NCGC01407818-01] = -1.1
O=C(NCc1ccc(N2CCNC2=O)cc1)c1csc(N2CCN(c3cccc(C(F)(F)F)c3)CC2)n1 [NCGC01407779-01] = -1.1
N#CSc1ccc(NC(=O)c2csc(N3CCN(c4cccc(C(F)(F)F)c4)CC3)n2)c(F)c1 [NCGC01407980-01] = -1.2
O=C(NCc1ccc2c(c1)CCC2)c1csc(N2CCN(c3cccc(C(F)(F)F)c3)CC2)n1 [NCGC01407784-01] = -1.2
O=C(NCc1ccc2ccccc2c1)c1csc(N2CCN(c3cccc(C(F)(F)F)c3)CC2)n1 [Compound 17] = -1.1
O=C(NCc1cccc(N2CCC2=O)c1)c1csc(N2CCN(c3cccc(C(F)(F)F)c3)CC2)n1 [Compound 20] = -1.2
O=C(NCc1ccc2c(c1)C(=O)NCC2)c1csc(N2CCN(c3cccc(C(F)(F)F)c3)CC2)n1 [NCGC01397286-01] = 5
O=C(Nc1ccncc1)c1ccc(CNC(=O)c2csc(N3CCN(c4cccc(C(F)(F)F)c4)CC3)n2)cc1 [NCGC01396478-01] = -2.1
O=C(NCc1ccc(C#CC2CC2)cc1)c1csc(N2CCN(c3cccc(C(F)(F)F)c3)CC2)n1 [NCGC01407809-01] = -1.4
N#Cc1ccc(CNC(=O)c2csc(N3CCN(c4cccc(C(F)(F)F)c4)CC3)n2)cc1F [NCGC01397293-01] = -1.1

Any idea what Cell_CC-v2 was measured for O=C(NCc1ccc2c(c1)CNC2=O)c1csc(N2CCN(c3cccc(C(F)(F)F)c3)CC2)n1 [NCGC01397290-02] ?
5

Also O=C(NCc1cccc([S+](=O)([O-])C(F)(F)F)c1)c1csc(N2CCN(c3cccc(C(F)(F)F)c3)CC2)n1 [NCGC01397299-01] , if possible.
-1.2

Also Cc1nc(-c2cccc(CNC(=O)c3csc(N4CCN(c5cccc(C(F)(F)F)c5)CC4)n3)c2)cs1 [Compound 14] , if possible.
-1.1

Also O=C(COc1cccc(CNC(=O)c2csc(N3CCN(c4cccc(C(F)(F)F)c4)CC3)n2)c1)NC1CC1 [NCGC01407783-01] , if possible.
-1.3

Also O=C(NCc1cccc(C2CC2)c1)c1csc(N2CCN(c3cccc(C(F)(F)F)c3)CC2)n1 [Compound 13] , if possible.
-1.2

* * *

- measurement-target: Human ALDH3A1 (Homo sapiens)
- assay: ALDH3A1 biochemical assay (benzaldehyde/NADP+, diaphorase-resazurin readout, 1,536-well)
- reported-conditions: Table S4, biochemical curve class
assay-readout: CC-v2
Lab note: record the figure alone, no unit after it.

Cc1cccc(CNC(=O)c2csc(N3CCN(c4ccc(C(F)(F)F)cn4)CC3)n2)c1 = -1.1
Cc1cccc(CNC(=O)c2csc(N3CCN(c4cccc(C)c4)CC3)n2)c1 = -1.2
Cc1cccc(CNC(=O)c2csc(N3CCN(c4ccc(C)c(C)c4)CC3)n2)c1 = -1.1

Then this compound:
Any idea what CC-v2 was measured for COc1ccc(N2CCN(c3nc(C(=O)NCc4cccc(C)c4)cs3)CC2)cc1OC ?
-1.2

* * *

- measurement-target: Human ALDH3A1 (Homo sapiens)
- Sequence (P30838 1-453): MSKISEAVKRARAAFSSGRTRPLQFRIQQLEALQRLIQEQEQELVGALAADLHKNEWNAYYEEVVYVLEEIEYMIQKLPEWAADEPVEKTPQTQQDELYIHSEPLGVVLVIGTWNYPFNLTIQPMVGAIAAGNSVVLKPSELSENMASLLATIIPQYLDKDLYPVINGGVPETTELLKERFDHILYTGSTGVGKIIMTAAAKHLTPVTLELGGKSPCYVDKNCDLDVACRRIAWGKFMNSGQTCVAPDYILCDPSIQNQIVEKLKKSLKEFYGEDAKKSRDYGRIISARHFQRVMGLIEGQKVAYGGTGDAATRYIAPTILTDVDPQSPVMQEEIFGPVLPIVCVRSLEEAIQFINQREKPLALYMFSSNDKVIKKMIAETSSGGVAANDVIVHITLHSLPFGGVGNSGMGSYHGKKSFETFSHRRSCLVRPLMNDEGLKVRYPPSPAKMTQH
- assay: ALDH3A1 biochemical assay (benzaldehyde/NADP+, diaphorase-resazurin readout, 1,536-well)
- reported-conditions: Table S5, biochemical curve class
This listing pairs compounds with measured CC-v2.

Use these answered entries as a reference point.
Cc1cc(CNC(=O)c2csc(N3CCN(c4cccc(C(F)(F)F)c4)CC3)n2)ccc1-c1ccccc1 [NCGC01407768-01] = -1.2
CC(C)(O)c1ccc(CNC(=O)c2csc(N3CCN(c4cccc(C(F)(F)F)c4)CC3)n2)cc1 [NCGC01408044-01] = -1.2
COc1cc(C)cc(CNC(=O)c2csc(N3CCN(c4cccc(C(F)(F)F)c4)CC3)n2)c1 [NCGC01407935-01] = -1.1

Any idea what CC-v2 was measured for C[S+](=O)([O-])c1ccc(CNC(=O)c2csc(N3CCN(c4cccc(C(F)(F)F)c4)CC3)n2)cc1 [NCGC01407818-01] ?
-1.2

Also Cc1ccccc1-c1cccc(CNC(=O)c2csc(N3CCN(c4cccc(C(F)(F)F)c4)CC3)n2)c1 [NCGC01407985-01] , if possible.
-1.2

Also O=C(NCc1ccc(Br)c(C(F)(F)F)c1)c1csc(N2CCN(c3cccc(C(F)(F)F)c3)CC2)n1 [NCGC01396480-01] , if possible.
-1.1

Also O=C(NCc1cccc(N2CCC[S+]2(=O)[O-])c1)c1csc(N2CCN(c3cccc(C(F)(F)F)c3)CC2)n1 [NCGC01407948-01] , if possible.
-1.2
